Biological target: 5-hydroxytryptamine receptor 1A (Rattus norvegicus)
Sequence (P19327 whole entry): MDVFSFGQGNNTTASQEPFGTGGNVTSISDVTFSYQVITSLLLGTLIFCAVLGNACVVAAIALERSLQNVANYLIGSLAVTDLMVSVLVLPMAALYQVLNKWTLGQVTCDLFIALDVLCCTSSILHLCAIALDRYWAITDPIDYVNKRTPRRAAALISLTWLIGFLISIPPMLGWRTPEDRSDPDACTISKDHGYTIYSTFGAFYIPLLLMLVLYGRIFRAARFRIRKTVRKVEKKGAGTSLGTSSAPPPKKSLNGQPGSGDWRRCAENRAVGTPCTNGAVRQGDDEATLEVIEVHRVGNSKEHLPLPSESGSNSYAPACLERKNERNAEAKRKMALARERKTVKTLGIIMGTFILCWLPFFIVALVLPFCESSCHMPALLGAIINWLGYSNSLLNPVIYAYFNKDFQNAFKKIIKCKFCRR
Assay: Binding affinity was evaluated by using [3H]8-OH-DPAT radioligand by using competitive binding assay on 5-hydroxytryptamine 1A receptor
pKi: −log10 of the molar value.
readout.kind: pKi

Which pKi reading was recorded for the molecule CC(C)(C)C1Cc2c(ccc(O)c2O)[C@H](CN)O1 (stereo partly specified) ?
< 4.70
